Hey, just so you know, these numbers are from ChEMBL document CHEMBL1135838.

Biological target: Alpha-1B adrenergic receptor (Homo sapiens) (UniProt P35368)
Sequence (whole entry): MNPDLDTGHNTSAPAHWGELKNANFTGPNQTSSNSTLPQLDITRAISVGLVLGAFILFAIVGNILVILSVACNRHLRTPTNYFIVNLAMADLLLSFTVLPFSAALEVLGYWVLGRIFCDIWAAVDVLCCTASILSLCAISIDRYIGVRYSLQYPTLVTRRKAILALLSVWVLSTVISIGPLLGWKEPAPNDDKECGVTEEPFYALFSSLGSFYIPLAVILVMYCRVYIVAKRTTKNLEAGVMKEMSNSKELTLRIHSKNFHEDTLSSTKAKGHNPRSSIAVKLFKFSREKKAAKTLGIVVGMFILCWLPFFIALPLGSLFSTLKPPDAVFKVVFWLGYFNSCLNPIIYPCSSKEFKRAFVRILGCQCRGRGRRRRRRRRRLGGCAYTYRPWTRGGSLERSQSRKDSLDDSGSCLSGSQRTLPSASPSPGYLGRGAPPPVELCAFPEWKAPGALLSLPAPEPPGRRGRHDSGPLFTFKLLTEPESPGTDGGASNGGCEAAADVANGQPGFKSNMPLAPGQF
Assay: Activation of human alpha-1B receptor expressed in rat-1 fibroblasts by calcium mobilization of Gq coupled PLC as percent phenylephrine (40 uM) response
Assay type: functional
ATTRIBUTE MEASURED: Max (%)

Some compounds with known Max results, for comparison:
[
  {
    "ITEM SMILES": "c1c[nH]c(-c2ccccc2OCC2=NCCN2)c1",
    "VALUE MEASURED": 104
  },
  {
    "ITEM SMILES": "c1csc(-c2ccccc2OCC2=NCCN2)c1",
    "VALUE MEASURED": 112
  },
  {
    "ITEM SMILES": "c1ccc(-c2nccs2)c(OCC2=NCCN2)c1",
    "VALUE MEASURED": 100
  },
  {
    "ITEM SMILES": "c1ccc(-c2ccsc2)c(OCC2=NCCN2)c1",
    "VALUE MEASURED": 103
  },
  {
    "ITEM SMILES": "c1cncc(-c2ccccc2OCC2=NCCN2)c1",
    "VALUE MEASURED": 111
  }
]

A = c1ccc(-c2ccoc2)c(OCC2=NCCN2)c1
B = c1ccc(-c2cnccn2)c(OCC2=NCCN2)c1
Data request: Problem: Given the entries A and B , determine which has the lower reported Max. In your reply, give the label of the chosen option.
Data returned: B
(B: 46%, A: 111%)
